Conditions: 5 µM
readout name: Half-life T 1/2 in CD-1 mouse whole blood (min)

Previously resolved entries follow.
* COC(=O)CCCC(C)(O)C(=O)Nc1cnc(C#N)c(SC)c1 (single isomer, unassigned) [Compound 015] | 4.34
* COC(=O)CCCC(C)(O)C(=O)Nc1cnc(C#N)c(C(F)(F)F)c1 (single isomer, unassigned) [Compound 008] | 3.94
* CCOC(=O)CCC[C@](C)(O)C(=O)Nc1cnc(C#N)c(SC)c1 [Compound 014] | 1.13

A = CCOC(=O)CCCC(C)(O)C(=O)Nc1cnc(C#N)c(C(F)(F)F)c1 (single isomer, unassigned) [Compound 006]
B = CC(C)OC(=O)CCCC(C)(O)C(=O)Nc1cnc(C#N)c(C(F)(F)F)c1 (single isomer, unassigned) [Compound 010]
Request: Could you please tell me which of these two has the higher Half-life T 1/2 in CD-1 mouse whole blood: A or B ? // respond with label for picked entry
Result: B
(B: 5.97 min, A: 3.61 min)

I = CSc1cc(NC(=O)C(C)(O)CCCC(=O)OC(C)C)cnc1C#N (single isomer, unassigned) [Compound 018]
II = COC(=O)CCCC(C)(O)C(=O)Nc1cnc(C#N)c(SC)c1 (single isomer, unassigned) [Compound 016]
Request: Could you tell me which of I and II has the lower Half-life T 1/2 in CD-1 mouse whole blood reading? // respond with label for picked entry
Result: I
(I: 4.93 min, II: 9.44 min)
